- Tested on: MCF7 breast
- assay-details: NCI-60 one-dose screen, 48 h (100 = growth as untreated, 0 = no growth, -100 = all killed)
- condition-parameters: 10 µM unless noted
Compounds without any hit were thinned out: in the full panel of roughly 83,000, 20% have a hit.
measured-quantity: growth (%)
Write down the numeric answer in % and omit the unit.

Below, 4 compounds whose answers are already recorded.
smiles-input: COc1cc(NC2=C(Cl)C(=O)c3nc(C)ccc3C2=O)cc(OC)c1
measure-unit: %
growth: -51.7
//
smiles-input: CC1(C)CC[C@]2(C(=O)N3CCCNCC3)CC[C@]3(C)C(=CC[C@@H]4[C@@]5(C)CCC(=O)C(C)(C)[C@@H]5CC[C@]43C)[C@H]2C1
measure-unit: %
growth: 93.6
//
smiles-input: O=C1Nc2ccc(Cl)cc2/C1=C/c1ccc(OCc2ccc(Br)cc2F)cc1
measure-unit: %
growth: 87.5
//
smiles-input: COc1cc2c3c(n(CCCN4CCCC4)c(=O)c2cc1OC)-c1cc2c(cc1C3=O)OCO2
measure-unit: %
growth: -71.7

Read the next record carefully.
// field: growth; key: Oc1ccc(CSc2nnc(-c3ccc(Br)cc3)o2)c2cccnc12 ; value = 16

---

- Tested on: SK-MEL-28 melanoma
- assay-details: NCI-60 one-dose screen, 48 h (100 = growth as untreated, 0 = no growth, -100 = all killed)
- condition-parameters: 10 µM unless noted
About 83,000 compounds went through this panel and 20% of them were active in at least one assay; those are over-represented in the sample as a whole.
hey, just use t if measured growth is less than 80%, otherwise f

smiles-input: N=c1c2cc(-c3ccccc3)oc2ncn1/N=C/c1ccccc1
group: f

IN: State whether 80% exceeds growth recorded for CCCCSc1nnc(-c2ccc(-c3ccc(Cl)cc3)nc2C)o1 .
OUT: f

IN: State whether 80% exceeds growth recorded for COC(=O)[C@@]1(C)CC[C@]2(C)CC[C@]3(C)C(=CC(=O)[C@@H]4[C@@]5(C)Cc6c(n(CC#CCN7CCN(C)CC7)c7ccccc67)C(C)(C)[C@@H]5CC[C@]43C)[C@@H]2C1 .
OUT: f

IN: State whether 80% exceeds growth recorded for COc1ccc2c(c1)c(-c1nnc(N)nc1-c1cn(C)c3ccccc13)cn2C .
OUT: f

IN: State whether 80% exceeds growth recorded for COc1ccc(-c2nc3cc(Cl)c(Cl)cc3n2CC(=O)N=Nc2c(O)[nH]c3ccc(Cl)cc23)cc1 .
OUT: t

IN: State whether 80% exceeds growth recorded for CN1CCN(c2nc(-c3cnc4ccccc4n3)cc3ccccc23)CC1 .
OUT: t

IN: State whether 80% exceeds growth recorded for Clc1ccccc1/C=C/c1nn2c(-c3ccncc3)nnc2s1 .
OUT: f

IN: State whether 80% exceeds growth recorded for Cc1ccc(Nc2ncnc3c2c(C)nn3-c2ccc([N+](=O)[O-])cc2)cc1 .
OUT: f

---

- Test system: EKVX NSCLC
- assay-details: NCI-60 one-dose screen, 48 h (100 = growth as untreated, 0 = no growth, -100 = all killed)
- condition-parameters: 10 µM unless noted
This is part of a sample that, as a whole, favours compounds with a hit. Of some 83,000 tested, about 20% had one in any assay.
Measured growth of individual entries
Write down the numeric answer in % and omit the unit.

Below, 5 compounds whose answers are already recorded.
smiles-input: O=C1c2c(c3c4cccnc4[nH]c3c3ccc4ccccc4c23)C(=O)N1CCN1CCCCC1
target-or-test-system: EKVX NSCLC
growth, %: 78

smiles-input: O=C1CSC(=O)N1Cc1cc2ccccc2nc1Cl
target-or-test-system: EKVX NSCLC
growth, %: 98.7

smiles-input: C#C[C@]1(O)CC[C@H]2[C@@H]3CC=C4c5sc(Nc6nc(C)cc(OC)n6)nc5CC[C@]4(C)[C@H]3CC[C@@]21C
target-or-test-system: EKVX NSCLC
growth, %: 41.8

smiles-input: Cc1ccc(-n2cc(/C=C/C(=O)c3ccc(S(C)(=O)=O)cc3)c(-c3ccc(S(C)(=O)=O)cc3)n2)cc1
target-or-test-system: EKVX NSCLC
growth, %: 93.2

smiles-input: COc1ccc(NC(=O)[C@H](C)N)cc1C(=O)Nc1cccc(-c2cc(=O)c3c(OC)c(OC)c(OC)cc3o2)c1
target-or-test-system: EKVX NSCLC
growth, %: 81.3

// field: growth; key: O=C1Nc2ccc(Cl)cc2/C1=C/c1ccc(OCc2ccc(F)cc2)cc1 ; value = 90.9

// field: growth; key: COc1ccccc1N1CCN(C2=NN=C(c3cccc(Cl)c3)c3ccccc3C2)CC1 ; value = 40.9

// field: growth; key: CCOC(=O)c1c(NC(=O)c2ccc(C(C)(C)C)cc2)sc2cc(OCCN3CCCCC3)ccc12 ; value = 87.5

// field: growth; key: O=C1Nc2ccc(Br)cc2/C1=N\c1nnc(-c2ccc(Cl)cc2)o1 ; value = 72.5

// field: growth; key: N/C(=N\OC(=O)CSc1nc2ccccc2s1)c1ccc(Cl)cc1 ; value = 86.6

// field: growth; key: CC(C)C(=O)Nc1ccc(-c2nc(-c3cccc(O)c3)c(-c3ccnc(Br)c3)[nH]2)cc1 ; value = 80.6

---

- Tested on: NCI-H522 lung
- assay-details: NCI-60 one-dose screen, 48 h (100 = growth as untreated, 0 = no growth, -100 = all killed)
- condition-parameters: 10 µM unless noted
Compounds without any hit were thinned out: in the full panel of roughly 83,000, 20% have a hit. Activity calls are given as the source filed them. Rule for the calls: active = growth percent below 10; inactive = the rest.
measured-quantity: growth

// field: growth; key: N#Cc1ccc(S(=O)(=O)Nc2ccc(-c3cnc(N)[nH]3)cc2)cc1 ; value = 94% (inactive)

// field: growth; key: CN(C)CCn1c2ccc(N)cc2c2nc3ccccc3nc21 ; value = 30.1% (inactive)

// field: growth; key: COc1ccc(S(=O)(=O)n2cc(C=O)c3ccccc32)c(OC)c1 ; value = 97.7% (inactive)

// field: growth; key: C/C(=C(/c1ccc(O)cc1)c1ccc(OCCN2CCCCCC2)cc1)c1ccccc1 ; value = 65.6% (inactive)

// field: growth; key: COc1cccc(/C=C/C(=O)c2ccc(NC(=O)COc3cccc4cccnc34)cc2)c1 ; value = 90.2% (inactive)

---

- Test system: SF-295 CNS
- assay-details: NCI-60 one-dose screen, 48 h
- condition-parameters: 10 µM unless noted
The panel holds about 83,000 compounds, 20% with a hit somewhere; the sample as a whole holds those more often. Active and inactive are the calls of the source. The calls were made as follows: active = growth percent below 10; inactive = the rest.
Respond using exactly one of the listed classes: active, inactive

Field: example entries. Status: answers known.
smiles-input: O=C(/C=C/c1cccc(O)c1)c1ccc(O)cc1
group: inactive
--
smiles-input: COc1ccc(S(=O)(=O)NCCCNc2nccc(-n3cnc4ccccc43)n2)cc1
group: inactive
--
smiles-input: O=C1[C@@H]2Cc3c([nH]c4ccccc34)[C@H](c3c(Cl)cccc3Cl)N2C(=O)CN1C1CCN(Cc2ccccc2)CC1
group: active
--
smiles-input: CC[C@@](C)(NC(=O)C(C)(C)NC(=O)[C@@H](NC(=O)[C@@H]1CCCN1C(=O)C(C)(C)NC(=O)[C@H](CC(C)C)NC(=O)CNC(=O)C(C)(C)NC(=O)[C@@H](NC(=O)C(C)(C)NC(=O)[C@H](CCC(N)=O)NC(=O)[C@H](C)NC(=O)C(C)(C)NC(=O)[C@H](C)NC(=O)C(C)(C)NC(=O)[C@H](C)NC(=O)C(C)(C)NC(C)=O)C(C)C)C(C)C)C(=O)N[C@@H](CCC(N)=O)C(=O)N[C@@H](CCC(N)=O)C(=O)N[C@H](CO)CC1CCCCC1
group: inactive
--
smiles-input: CC(=O)C1=NN(c2ccc(Cl)cc2)C(=O)CN1C
group: inactive

IN: Outcome? O=C1NC(=O)/C(=C/c2ccc(OCc3cc4ccccc4nc3Cl)cc2)S1
OUT: inactive

---

- Tested on: OVCAR-3 ovarian
- assay-details: NCI-60 one-dose screen, 48 h
- condition-parameters: 10 µM unless noted
About 83,000 compounds went through this panel and 20% of them were active in at least one assay; those are over-represented in the sample as a whole. The source made the active and inactive calls. The calls were made as follows: active = growth percent below 10; inactive = the rest.
Respond using exactly one of the listed classes: y (active), n (inactive)

smiles-input: CCOC(=O)c1nn(-c2ccc(C)cc2)c(=O)c2c(N)c(C#N)c(-c3ccc(OC)cc3)cc12
target-or-test-system: OVCAR-3 ovarian
group: n

IN: Outcome? CCN(CC)Cc1c(-c2cccc(OC(F)(F)F)c2)[nH]c2ccc(N3CCCC3)cc2c1=O
OUT: n

IN: Outcome? COc1ccc([C@H]2c3[nH]c4ccccc4c3C[C@@H]3C(=O)N(C4CCN(Cc5ccccc5)CC4)CC(=O)N23)c(OC)c1
OUT: n

IN: Outcome? CNC(=O)c1c(NC(=O)c2ccc(F)cc2F)sc2c1CCC(=O)C2
OUT: y

IN: Outcome? O=C1[C@H]2Cc3c([nH]c4ccccc34)[C@@H](c3c(Cl)cccc3Cl)N2C(=O)CN1C1CCN(Cc2ccccc2)CC1
OUT: n

IN: Outcome? C#C[C@]1(O)CC[C@H]2[C@@H]3CC=C4c5sc(C6CC6)nc5CC[C@]4(C)[C@H]3CC[C@@]21C
OUT: n

IN: Outcome? O=C(Nc1cccc(-c2nc(-c3ccc(NC(=O)c4cccs4)cc3Cl)no2)c1)Nc1ccc(NC(=O)C2CC2)c(C(F)(F)F)c1
OUT: y

IN: Outcome? O=S(=O)(Nc1ccc2c(c1)OC(F)(F)O2)c1ccc(-c2cnc(C3CC3)o2)cc1
OUT: n

IN: Outcome? COc1ccc(/C=C/C(=O)c2nnn(-c3ccc(C(=O)O)cc3)c2C)cc1OC
OUT: n

IN: Outcome? CN1CCN(c2ccc(NC(=O)Nc3ccc4c(ccn4-c4cccc(C(N)=O)n4)c3)cc2C(F)(F)F)CC1
OUT: n

IN: Outcome? O=C(Nc1cccc(Cl)c1)Nc1nc2ccc(-c3cccc4ccccc34)cc2s1
OUT: n

IN: Outcome? CCOC(=O)c1c(NCC(=O)Nc2cccc(Cl)c2)sc2c1CCCC2
OUT: n

IN: Outcome? O=C(Nc1cc(Cl)cc(Cl)c1)Nc1nc2ccc([N+](=O)[O-])cc2s1
OUT: n

IN: Outcome? COc1ccc(Cn2cc3c(c2-c2cc(OC)c(OC)c(OC)c2)CCCc2cnoc2-3)cc1
OUT: y

IN: Outcome? Oc1ccc(CSc2nnc(-c3cnccn3)n2-c2ccccc2)c2cccnc12
OUT: n
